test system: Staphylococcus aureus; assay: Antimicrobial activity against methicillin-resistant Staphylococcus aureus 143/6 by twofold dilution technique; format: functional
Listed compounds paired with reported MIC
State the answer as a number, implicitly in µg/mL.

# compound structure string, readout units, MIC
rows = [
    ("Cc1cc2c(C(C)C)c(O)c(O)c(/C=N/N3CCN(CCO)CC3)c2c(O)c1-c1c(C)cc2c(C(C)C)c(O)c(O)c(/C=N/N3CCN(CCO)CC3)c2c1O", "µg/mL", 50),
    ("COc1ccc2[nH]cc(CCN/C=C3\\C(=O)C(O)=C(C(C)C)c4cc(C)c(-c5c(C)cc6c(c5O)/C(=C/NCCc5c[nH]c7ccc(OC)cc57)C(=O)C(O)=C6C(C)C)c(O)c43)c2c1", "µg/mL", 100),
    ("Cc1cc2c(c(O)c1-c1c(C)cc3c(c1O)/C(=C/N)C(=O)C(O)=C3C(C)C)/C(=C/N)C(=O)C(O)=C2C(C)C", "µg/mL", 100),
    ("CCCCOCCOCCN/C=C1\\C(=O)C(O)=C(C(C)C)c2cc(C)c(-c3c(C)cc4c(c3O)/C(=C/NCCOCCOCCCC)C(=O)C(O)=C4C(C)C)c(O)c21", "µg/mL", 100),
]

Ask: Retrieve MIC measured for Cc1cc2c(C(C)C)c(O)c(O)c(C=O)c2c(O)c1-c1c(C)cc2c(C(C)C)c(O)c(O)c(C=O)c2c1O and print it.
Result: 50

====

system: Staphylococcus aureus; experiment: Antimicrobial activity against methicillin-resistant Staphylococcus aureus 141/6 by twofold dilution technique; type: functional
reported metric: MIC (µg/mL)
Please respond with the number in µg/mL and leave the unit unwritten.

# count of solved cases: 2
# molecule, MIC / µg/mL
rows = [
    ("Cc1cc2c(c(O)c1-c1c(C)cc3c(c1O)/C(=C/NCC1COCCOCCOCCOCCOCCO1)C(=O)C(O)=C3C(C)C)/C(=C/NCC1COCCOCCOCCOCCOCCO1)C(=O)C(O)=C2C(C)C (configuration not stated)", 100),
    ("COCCOC(CN/N=C/c1c(O)c(O)c(C(C)C)c2cc(C)c(-c3c(C)cc4c(C(C)C)c(O)c(O)c(/C=N/NCC(OCCOC)OCCOC)c4c3O)c(O)c12)OCCOC", 400),
]

Ask: Indicate the recorded MIC value for this molecule: Cc1cc2c(c(O)c1-c1c(C)cc3c(c1O)/C(=C/N)C(=O)C(O)=C3C(C)C)/C(=C/N)C(=O)C(O)=C2C(C)C
Result: 100

Ask: Report MIC for Cc1cc2c(c(O)c1-c1c(C)cc3c(c1O)/C(=C/NCCc1cccs1)C(=O)C(O)=C3C(C)C)/C(=C/NCCc1cccs1)C(=O)C(O)=C2C(C)C
Result: 50

Ask: Dear colleague, please send me the reported MIC for COCCOCCOCCN/N=C/c1c(O)c(O)c(C(C)C)c2cc(C)c(-c3c(C)cc4c(C(C)C)c(O)c(O)c(/C=N/NCCOCCOCCOC)c4c3O)c(O)c12 when you can.
Result: 400

Ask: Please list MIC recorded for the molecule COCCOCCN/N=C/c1c(O)c(O)c(C(C)C)c2cc(C)c(-c3c(C)cc4c(C(C)C)c(O)c(O)c(/C=N/NCCOCCOC)c4c3O)c(O)c12
Result: 200

====

test system: Enterococcus hirae; assay: Antimicrobial activity against Enterococcus hirae ATCC 10541 at 400 ug after 18 hrs by disk diffusion method; assay type: functional
The source made the active and inactive calls. The rule behind the calls is not given here.
reported metric: diameter of the inhibition zone (DIZ)

# compound structure string, reported metric, observed
records = [
    ("COCCOCCOCCN/N=C/c1c(O)c(O)c(C(C)C)c2cc(C)c(-c3c(C)cc4c(C(C)C)c(O)c(O)c(/C=N/NCCOCCOCCOC)c4c3O)c(O)c12", "diameter of the inhibition zone (DIZ)", "inactive"),
    ("Cc1cc2c(c(O)c1-c1c(C)cc3c(c1O)/C(=C/N)C(=O)C(O)=C3C(C)C)/C(=C/N)C(=O)C(O)=C2C(C)C", "diameter of the inhibition zone (DIZ)", "inactive"),
    ("Cc1cc2c(C(C)C)c(O)c(O)c(/C=N/N3CCN(CCO)CC3)c2c(O)c1-c1c(C)cc2c(C(C)C)c(O)c(O)c(/C=N/N3CCN(CCO)CC3)c2c1O", "diameter of the inhibition zone (DIZ)", "inactive"),
]

====

The following molecules are shown together with reported zone of inhibition at 400 µg/disc values.
system: Staphylococcus aureus; assay: Antimicrobial activity against Staphylococcus aureus NCTC 4163 at 400 ug after 18 hrs by disk diffusion method; type: functional; conditions: NCTC 4163, 18 h, read-out: DIZ
Express it in mm; write the number only.

Reference set, count: 2
# compound structure string, observed
measured = [
    ("COCCOCCOCCN/N=C/c1c(O)c(O)c(C(C)C)c2cc(C)c(-c3c(C)cc4c(C(C)C)c(O)c(O)c(/C=N/NCCOCCOCCOC)c4c3O)c(O)c12", 11),
    ("Cc1cc2c(c(O)c1-c1c(C)cc3c(c1O)/C(=C/NCCc1cccs1)C(=O)C(O)=C3C(C)C)/C(=C/NCCc1cccs1)C(=O)C(O)=C2C(C)C", 18),
]

Lab note: next molecule to report on.
Ask: Give the reported zone of inhibition at 400 µg/disc for this molecule. Cc1cc2c(c(O)c1-c1c(C)cc3c(c1O)/C(=C/NCCC(=O)N[C@@H](Cc1c[nH]cn1)C(=O)O)C(=O)C(O)=C3C(C)C)/C(=C/NCCC(=O)N[C@@H](Cc1c[nH]cn1)C(=O)O)C(=O)C(O)=C2C(C)C
Result: 15

====

tested on: Staphylococcus epidermidis; experiment: Antimicrobial activity against Staphylococcus epidermidis ATCC 12228 at 400 ug after 18 hrs by disk diffusion method; format: functional; settings: ATCC 12228, 18 h, read-out: DIZ
reported metric: zone of inhibition at 400 µg/disc (mm)
Field format: number, assumed mm, no unit text.

Record excerpt, results attached:
# compound, system name, reported metric, observed
data = [
    ("Cc1cc2c(c(O)c1-c1c(C)cc3c(c1O)/C(=C/N)C(=O)C(O)=C3C(C)C)/C(=C/N)C(=O)C(O)=C2C(C)C", "Staphylococcus epidermidis", "zone of inhibition at 400 µg/disc", 12),
    ("Cc1cc2c(c(O)c1-c1c(C)cc3c(c1O)/C(=C/NCC1COCCOCCOCCOCCOCCO1)C(=O)C(O)=C3C(C)C)/C(=C/NCC1COCCOCCOCCOCCOCCO1)C(=O)C(O)=C2C(C)C (configuration not stated)", "Staphylococcus epidermidis", "zone of inhibition at 400 µg/disc", 12),
    ("COCCOCCOCCN/N=C/c1c(O)c(O)c(C(C)C)c2cc(C)c(-c3c(C)cc4c(C(C)C)c(O)c(O)c(/C=N/NCCOCCOCCOC)c4c3O)c(O)c12", "Staphylococcus epidermidis", "zone of inhibition at 400 µg/disc", 14),
    ("COCCOCCN/N=C/c1c(O)c(O)c(C(C)C)c2cc(C)c(-c3c(C)cc4c(C(C)C)c(O)c(O)c(/C=N/NCCOCCOC)c4c3O)c(O)c12", "Staphylococcus epidermidis", "zone of inhibition at 400 µg/disc", 12),
    ("COc1ccc2[nH]cc(CCN/C=C3\\C(=O)C(O)=C(C(C)C)c4cc(C)c(-c5c(C)cc6c(c5O)/C(=C/NCCc5c[nH]c7ccc(OC)cc57)C(=O)C(O)=C6C(C)C)c(O)c43)c2c1", "Staphylococcus epidermidis", "zone of inhibition at 400 µg/disc", 15),
    ("Cc1cc2c(C(C)C)c(O)c(O)c(C=O)c2c(O)c1-c1c(C)cc2c(C(C)C)c(O)c(O)c(C=O)c2c1O", "Staphylococcus epidermidis", "zone of inhibition at 400 µg/disc", 16),
    ("Cc1cc2c(C(C)C)c(O)c(O)c(/C=N/N3CCN(CCO)CC3)c2c(O)c1-c1c(C)cc2c(C(C)C)c(O)c(O)c(/C=N/N3CCN(CCO)CC3)c2c1O", "Staphylococcus epidermidis", "zone of inhibition at 400 µg/disc", 14),
    ("Cc1cc2c(c(O)c1-c1c(C)cc3c(c1O)/C(=C/NCCC(=O)N[C@@H](Cc1c[nH]cn1)C(=O)O)C(=O)C(O)=C3C(C)C)/C(=C/NCCC(=O)N[C@@H](Cc1c[nH]cn1)C(=O)O)C(=O)C(O)=C2C(C)C", "Staphylococcus epidermidis", "zone of inhibition at 400 µg/disc", 14),
]

Next, consider the following compound.
Ask: Annotate the compound COCCN/N=C/c1c(O)c(O)c(C(C)C)c2cc(C)c(-c3c(C)cc4c(C(C)C)c(O)c(O)c(/C=N/NCCOC)c4c3O)c(O)c12 with its measured zone of inhibition at 400 µg/disc.
Result: 15
